Reference for the values: patent US8680152B2

Molecular target: Human cathepsin F (Homo sapiens, UniProt Q9UBX1)
Sequence (Q9UBX1 271-484): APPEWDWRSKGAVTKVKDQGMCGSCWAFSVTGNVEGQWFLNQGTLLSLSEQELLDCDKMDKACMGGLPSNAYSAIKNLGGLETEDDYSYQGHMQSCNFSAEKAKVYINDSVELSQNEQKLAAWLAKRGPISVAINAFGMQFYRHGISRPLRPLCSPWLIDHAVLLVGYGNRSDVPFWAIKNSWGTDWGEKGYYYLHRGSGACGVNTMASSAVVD
Measured Attribute: IC50 (nM)
Answer with a number only, understood to be in nM.

Problem: API: value(readout= IC50, system= Human cathepsin F (Homo sapiens, UniProt Q9UBX1), query= CC[C@H](NC(=O)[C@H](CS(=O)(=O)Cc1cccnc1)N[C@@H](c1ccc(F)cc1)C(F)(F)F)C(=O)C(=O)NC1CC1 )
Solution: 74

###

Biological target: Cathepsin K (huRab), humanized rabbit cathepsin K enzyme (Oryctolagus cuniculus, UniProt P43236)
Sequence (P43236 whole entry Y175D/V274L, form open): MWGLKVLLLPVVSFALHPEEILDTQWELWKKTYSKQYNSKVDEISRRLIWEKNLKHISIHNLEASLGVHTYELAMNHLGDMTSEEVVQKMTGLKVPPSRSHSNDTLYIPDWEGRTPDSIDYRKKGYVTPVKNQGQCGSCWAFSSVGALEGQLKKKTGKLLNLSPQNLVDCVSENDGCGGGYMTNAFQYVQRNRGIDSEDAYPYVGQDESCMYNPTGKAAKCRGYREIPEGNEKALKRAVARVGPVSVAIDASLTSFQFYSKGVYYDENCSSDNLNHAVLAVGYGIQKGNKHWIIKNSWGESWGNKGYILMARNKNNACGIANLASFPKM
Assay: Cathepsin K (huRab) assay
Assay type: biochemical
Measured Attribute: IC50 (nM)
Answer with a number only, understood to be in nM.

Problem: Entry under review: CC[C@H](NC(=O)[C@H](CS(=O)(=O)Cc1cccnc1)N[C@@H](c1ccc(F)cc1)C(F)(F)F)C(=O)C(=O)NC1CC1 . Reported IC50?
Solution: 28
